Target: human apical sodium-dependent transporter (SLC10A2, ASBT) (Homo sapiens)
Sequence (Q12908 whole entry): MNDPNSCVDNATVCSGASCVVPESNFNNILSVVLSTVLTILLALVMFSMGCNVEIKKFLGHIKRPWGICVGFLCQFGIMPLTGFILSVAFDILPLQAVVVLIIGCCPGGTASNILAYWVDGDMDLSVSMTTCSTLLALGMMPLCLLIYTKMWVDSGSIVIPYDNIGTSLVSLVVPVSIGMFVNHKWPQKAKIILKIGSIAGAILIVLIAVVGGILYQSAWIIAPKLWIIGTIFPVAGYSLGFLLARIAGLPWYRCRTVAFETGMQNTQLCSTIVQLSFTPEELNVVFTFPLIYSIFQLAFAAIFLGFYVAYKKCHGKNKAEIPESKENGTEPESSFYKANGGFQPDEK
Details: 100 µM
Counter-ions that a name gives are not always drawn.
Each item that follows carries a reported inhibition.
The reply should contain only the number, in %.

CCCCOc1cc(C(=O)NCCN(CC)CC)c2ccccc2n1 [Dibucaine hydrochloride, dibucaine hydrochloride] | 43.8
COc1ccc([C@@H]2Sc3ccccc3N(CCN(C)C)C(=O)[C@@H]2OC(C)=O)cc1 [Diltiazem hydrochloride, diltiazem hydrochloride] | 26.5

Lab book: inhibition of NS(=O)(=O)c1cc2c(cc1C(F)(F)F)NC(Cc1ccccc1)NS2(=O)=O (stereo not drawn) [Bendroflumethiazide, bendroflumethiazide] noted as 37.6

Lab book: inhibition of COC(=O)C1=C(C)NC(C)=C(C(=O)OC(C)C)C1c1cccc2nonc12 (stereo not drawn) noted as 68.1

Lab book: inhibition of CCCCNc1cc(C(=O)O)cc(S(N)(=O)=O)c1Oc1ccccc1 [Bumetanide, bumetanide] noted as 15.6
